# experimental_target: human immunoglobulin E (hIgE) (human) (UniProt P01854)
# Sequence (P01854 whole entry): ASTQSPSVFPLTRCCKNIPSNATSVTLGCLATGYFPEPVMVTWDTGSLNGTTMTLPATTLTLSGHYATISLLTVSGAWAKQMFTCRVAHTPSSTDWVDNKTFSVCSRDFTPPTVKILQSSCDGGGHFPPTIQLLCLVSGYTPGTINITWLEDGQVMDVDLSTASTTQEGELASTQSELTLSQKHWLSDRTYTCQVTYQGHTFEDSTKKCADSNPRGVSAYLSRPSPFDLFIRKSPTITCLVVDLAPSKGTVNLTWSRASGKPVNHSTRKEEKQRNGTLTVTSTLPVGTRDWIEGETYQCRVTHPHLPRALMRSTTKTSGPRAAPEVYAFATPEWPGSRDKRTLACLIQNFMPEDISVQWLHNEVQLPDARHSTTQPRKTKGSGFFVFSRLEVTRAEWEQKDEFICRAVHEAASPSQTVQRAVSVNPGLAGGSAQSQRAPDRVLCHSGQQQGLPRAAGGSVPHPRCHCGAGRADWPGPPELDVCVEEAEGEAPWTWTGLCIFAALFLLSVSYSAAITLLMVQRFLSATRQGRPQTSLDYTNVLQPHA
# assay_procedure: competition ELISA, hIgE to coated hFcεRIα, pH 7.4
List of IC50 values.
Hi! Could you send only the number? It should be in µg/mL, unit omitted.

A selection of reference data follows.
binder	IC50 / µg/mL
18B9His-hIgG1-ABDEG (antibody, V domains shown) VH: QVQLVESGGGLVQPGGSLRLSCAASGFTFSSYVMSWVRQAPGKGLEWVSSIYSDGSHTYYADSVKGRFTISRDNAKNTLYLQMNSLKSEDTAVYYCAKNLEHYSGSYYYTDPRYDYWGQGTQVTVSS VL: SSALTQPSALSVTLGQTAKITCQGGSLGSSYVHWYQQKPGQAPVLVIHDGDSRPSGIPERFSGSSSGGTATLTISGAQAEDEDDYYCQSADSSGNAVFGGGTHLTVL	0.13
18E2His2-hIgG1-WT (antibody, V domains shown) VH: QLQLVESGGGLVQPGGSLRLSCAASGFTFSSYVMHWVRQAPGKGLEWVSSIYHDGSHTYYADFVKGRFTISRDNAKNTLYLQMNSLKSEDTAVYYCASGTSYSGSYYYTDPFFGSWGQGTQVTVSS VL: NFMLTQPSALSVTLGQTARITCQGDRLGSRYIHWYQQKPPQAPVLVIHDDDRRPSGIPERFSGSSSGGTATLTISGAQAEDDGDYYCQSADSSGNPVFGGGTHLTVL	2.48

Pending binder:
Data point: 13E4-hIgG1-WT (antibody, V domains shown) VH: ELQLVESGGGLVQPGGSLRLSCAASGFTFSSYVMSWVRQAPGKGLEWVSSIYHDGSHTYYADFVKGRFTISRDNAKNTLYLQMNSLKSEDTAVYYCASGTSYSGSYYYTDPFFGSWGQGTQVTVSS VL: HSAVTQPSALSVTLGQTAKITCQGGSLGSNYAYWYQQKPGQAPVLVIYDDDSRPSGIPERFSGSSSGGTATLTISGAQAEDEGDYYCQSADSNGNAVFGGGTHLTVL ; IC50 = 0.00681
